Hi there, I'd appreciate the recorded TGI for every entry that follows.
# Test system: HOP-18 NSCLC
# METHOD DESCRIPTION: NCI tumour cell line growth inhibition, 48 h
One number for each entry, in µM.

A selection of reference data follows.
[
  {
    "COMPOUND": "O=C1c2ccccc2C(=O)c2c(NCCNCCO)ccc(O)c21",
    "RECORDED ENDPOINT": "TGI",
    "UNITS": "µM",
    "ENDPOINT RESULT": 21.4
  },
  {
    "COMPOUND": "CCCc1c[nH]c(-c2ccc(-c3cc(CCC)c(C=O)[nH]3)s2)c1",
    "RECORDED ENDPOINT": "TGI",
    "UNITS": "µM",
    "ENDPOINT RESULT": 43
  },
  {
    "COMPOUND": "C=C1CC[C@@H](Br)C(C)(C)[C@]12CCC(C)(O)C(Cl)C2 (stereo not given in full)",
    "RECORDED ENDPOINT": "TGI",
    "UNITS": "µM",
    "ENDPOINT RESULT": 59.1
  }
]

Task item: Provide value of TGI for this record tested with HOP-18 NSCLC: `COc1ccc2c(c1)[n+]([O-])c(-c1ccccc1)c(N)[n+]2[O-]`
Reply: 97

###

# Test system: NCI-H23 lung
# METHOD DESCRIPTION: NCI tumour cell line growth inhibition, 48 h
RECORDED ENDPOINT: TGI (µM)
Give bare numbers, in µM.

[
  {
    "COMPOUND": "C=C1CCCCCCCCCCC12SCCC2CCCCSC (stereo not given)",
    "ENDPOINT RESULT": 56.9
  }
]

Shifting focus to the compound that follows.
Task item: Find the recorded TGI belonging to CCOC(=O)C1=C(C)NC2SC(=O)/C(=C\c3ccccc3O)N2C1c1ccccc1 (stereo not given) and report it.
Reply: 53.5

###

Hi there, I'd appreciate the recorded TGI for every entry that follows.
# Test system: A498 renal
# METHOD DESCRIPTION: NCI tumour cell line growth inhibition, 48 h
Give bare numbers, in µM.

A selection of reference data follows.
[
  {
    "COMPOUND": "Cc1cc2c(cc1C)[n+](=O)c(C#N)c(Cl)n2[O-]",
    "UNITS": "µM",
    "TGI": 39.5
  },
  {
    "COMPOUND": "O=C1c2ccccc2C(=O)c2c(NCCNCCO)ccc(O)c21",
    "UNITS": "µM",
    "TGI": 19.4
  }
]

I would be grateful if you could provide TGI for each of the following entries.
1. COc1ccc2c3c(n(Cc4ccccc4)c(=O)c2c1)-c1cc(OC)c(OC)cc1C3C (stereo not given)
2. O=C1C(Cl)=C(N2C(=O)CCCC2=O)C(=O)c2ccccc21
3. CC/C=C\C/C=C\C[C@H](O)C/C=C1/C(=O)C=C[C@@H]1C/C=C\CCCC(=O)O

Reply:
[97.8, 33.4, 31.1]

I would be grateful if you could provide TGI for each of the following entries.
1. C=C1CC[C@@H](Br)C(C)(C)[C@]12CCC(C)(O)C(Cl)C2 (stereo not given in full)
2. COC(=O)[C@]12CC[C@@H](C)[C@H](C)[C@@H]1C1=CC[C@@H]3[C@@]4(C)C(C=O)=C[C@@](C)(COC(=O)c5ccco5)[C@@H]4C(=O)C[C@@]3(C)[C@]1(C)CC2
3. Cc1ccc(C)c(NC(=O)NCc2ccc(Cl)cc2)c1

Reply:
1. 44.7
2. 94.7
3. 88.4
